# Measurement description: NCI Yeast Anticancer Drug Screen. Data for the mec2-1 strain (AID 157)
# Test parameters: S. cerevisiae mec2-1 strain, at 50.0 µM, active compounds read high
Compounds without any hit were thinned out: in the full panel of roughly 79,000, 15% have a hit.
Can you tell me growth inhibition for the items I'm about to list?
Give bare numbers, in %.

Q: growth inhibition lookup needed for "N#C/C(=C\n1c(=S)[nH]c2ccc([N+](=O)[O-])cc21)c1cccc(Cl)c1" , thanks.
Result: -13.9

Q: Likewise for CC1(C)Oc2ccc(NC(=O)CCC(N)C(=O)O)cc2O1 (stereo unspecified) ?
Result: -52.7

Q: Repeat for the following compound: "NC(=O)NCc1ccc(CNC(N)=O)cc1"
Result: 15.1

// each compound listed below needs its growth inhibition
1. COCCc1ccncc1
2. S=C(Nc1ccc(I)cc1)SCc1ccc2c(c1)OCO2
3. COc1ccc(C2NCCCC2c2ccccc2)cc1 (stereo unspecified)

Result:
-35.3
14.4
-29.4

###

Would you kindly list growth inhibition for each of these compounds?
# Measurement description: NCI Yeast Anticancer Drug Screen. Data for the rad50 strain (AID 155);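 note: 0% = growth of vehicle-only cultures of the same strain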
# Test parameters: S. cerevisiae rad50 strain growth inhibition; at 50.0 µM; active compounds read high
This is part of a sample that, as a whole, favours compounds with a hit. Of some 79,000 tested, about 15% had one in any assay.
One number for each entry, in %.

Q: Give its growth inhibition value. Item: "c1ccc2c(c1)SCCc1nncn1-2"
Result: -6.6

Q: CCOC(=O)C(CN(CC)CC)c1ccccc1 (stereo not drawn) ?
Result: -1.15

Q: Likewise for CCC1(C)N=C(C)C(C)S1 (stereo not drawn) ?
Result: -7.6

Take each entry in turn and give its growth inhibition.
1. CCCC(=O)Oc1cccc(C)c1
2. CCCOc1cncc(C)n1
3. O=C1c2cc(Cl)ccc2-c2c(Cl)cccc21
4. C/C(Nc1ccc(Cl)cc1)=C1/CCOC1=O

Result:
1: 15.7; 2: 8; 3: 22.9; 4: 19.1

Would you be so kind as to report growth inhibition for each listed record?
1. O=CC(O)C(O)C(O)C(O)C(=O)O.O=CC(O)C(O)C(O)C(O)C(=O)O.[NH-]C1CCCCC1[NH-].[Pt+2] (stereo not drawn)
2. C/C=C1\CN2CCc3c([nH]c4ccccc34)C2CC1CCO (stereo not drawn)
3. CC(C)(C)[Si](C)(C)OC1C(=O)C[C@H]2CCCC[C@@H]12 (stereo partly drawn)
4. COC(=O)C12C3C4C1C1C2C3C41C(=O)OC(C)(C)C (stereo not drawn)
5. CC(=O)N(C)c1ccc(O)cc1
6. CCCC(C)(CC)C(=O)O (stereo not drawn)
7. O=C(O)c1cccc(C(=O)c2ccccc2)c1
8. CC1(c2cccc[n+]2Cc2ccccc2S(=O)(=O)[O-])OCCO1

Result:
-7.65
-16.8
-6.75
18
14.6
7.45
5.55
5.5

# batch size: 2; output growth inhibition per entry
1. O=c1[nH]cc(NS(=O)(=O)O)c(=O)[nH]1
2. CC(=O)C1=C2CCC3C(CCC4CC(O)CCC43C)C2CC1 (stereo not drawn)

Result:
-2.15
-3.95

###

# Measurement description: NCI Yeast Anticancer Drug Screen. Data for the mec2-1 strain (AID 157)
# Test parameters: S. cerevisiae mec2-1 strain, at 50.0 µM, active compounds read high
The panel holds about 79,000 compounds, 15% with a hit somewhere; the sample as a whole holds those more often.
Please respond with reported growth inhibition for every item in the list.
Numbers only, in %.

Observe how each entry below is paired with its result.
Q: What does the data say about its growth inhibition? Entry: CC1CC(C)OC2(CCCC2)O1 (stereo not drawn)
Result: -8.05

Q: Then this compound: COC1CC(NC(C)=O)C2OC(c3ccccc3)OCC2O1 (stereo not drawn)
Result: 11.2

Q: Same thing, different compound: "CCCCCCCCCCCCSC(=O)CCC(=O)O"
Result: -11.9

Q: What do we get for CN(CC(=O)C(O)C(O)C(O)CO)c1ccccc1 (stereo not drawn) ?
Result: -8.75

Q: Subsequent entry: CP(=O)(c1ccccc1)c1ccccc1OCCCOCCCOc1ccccc1P(C)(=O)c1ccccc1 (stereo not drawn)
Result: 3.4

Q: Now this one: "C#CC(C)(C)OC(=O)Nc1ccc(Cl)cc1"
Result: 16.2

# batch size: 3; output growth inhibition per entry
1. Clc1ccc(Cl)c2c(Br)cncc12
2. COc1cc2c(c(OC)c1OC)C(=O)[C@@H](O)[C@H]2N
3. CC(=O)NC(C)(CO)C(=O)O (stereo not drawn)

Result:
1. 10.8
2. -31.9
3. 12.7

Each compound below has a recorded value; state its growth inhibition.
1. N#Cc1ccccc1NC(=O)Nc1ccc(Cl)cc1Cl
2. CCOC(=O)c1cc2c(nc1NCc1ccccc1)C(=O)CCCC2

Result:
[-7.35, 22]

Please report growth inhibition for every entry that follows.
1. CC(=O)Oc1ccc2c(-c3ccccc3)c(Oc3ccc(Cl)cc3)c(=O)oc2c1
2. Cc1cc(O)c(C(c2ccccn2)c2c(O)cc(C)[nH]c2=O)c(=O)[nH]1
3. O=C1C2(CCCC13N=NCC3c1ccccc1)N=NCC2c1ccccc1 (stereo not drawn)

Result:
1: -5.05; 2: 6.15; 3: -19.1

// batch mode: one growth inhibition value per listed entry
1. Cc1cc2c(=O)cc(-c3ccc(Cl)cc3Cl)oc2c(C(=O)O)c1C
2. O=S(CCO)c1ccc(Cl)cc1 (stereo not drawn)
3. CCCCCCCCCCCC(=O)OC(COC(N)=O)COc1ccc(Cl)cc1 (stereo not drawn)
4. COC(=O)c1ccccc1N=Cc1cc(Cl)ccc1O

Result:
1: 10.9; 2: -20.1; 3: -59.5; 4: 23.1

Hi, could you look up growth inhibition for each item in my list?
1. Cc1ncc(-c2ccccc2)o1
2. O=S1(=O)C=C(N2CCCCC2)c2ccccc21
3. CCOC(=O)c1ccc(CCCN)cc1
4. C=CCC(=O)OCc1cc2c(cc1Br)OCO2
5. CN(C)NC1=C([N+](=O)[O-])C=NN(c2ccccc2)C1
6. C/C=C/C(=O)OCCc1ccccc1
7. Clc1cc(Cl)c2ccc3c(Cl)cc(Cl)c4ccc1c2c43

Result:
[-21.2, 2.05, -13.2, -17.2, -1.15, 3.4, -33.3]

Give me growth inhibition for each of these compounds, listed below.
1. Cc1cc(N(CCC#N)CCC#N)ccc1/C=C1/N=C(c2ccccc2)N(N)C1=O
2. COc1nc(SC)nc2[nH]ccc12
3. Cc1cc(=O)c2c(Br)ccc(Br)c2[nH]1

Result:
13.2
9.75
-16.1

###

# Measurement description: NCI Yeast Anticancer Drug Screen. Data for the rad50 strain (AID 155);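 note: 0% = growth of vehicle-only cultures of the same strain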
# Test parameters: S. cerevisiae rad50 strain growth inhibition; at 50.0 µM; active compounds read high
The panel holds about 79,000 compounds, 15% with a hit somewhere; the sample as a whole holds those more often.
Would you mind telling me the reported growth inhibition of each entry?
Numbers only, in %.

For the 2 compounds below, give their growth inhibition values.
1. CC(=O)OCN(C)N=Nc1ccc(C(C)=O)cc1
2. S=C(Nc1ccc(Cl)cc1)Nc1ccc(Cc2ccc(NC(=S)Nc3ccc(Cl)cc3)cc2)cc1

Result:
1: -4.6; 2: 53.9

###

# Measurement description: NCI Yeast Anticancer Drug Screen. Data for the bub3 strain (AID 167)
# Test parameters: S. cerevisiae bub3 mutant strain, at 50.0 µM, active compounds read high
This is part of a sample that, as a whole, favours compounds with a hit. Of some 79,000 tested, about 15% had one in any assay.
Endpoint: growth inhibition (%)
One number for each entry, in %.

Worked examples, 5 molecules total:
Q: Given the entry "Cn1c(=O)cnc2c3ccccc3ccc21" , report its measured growth inhibition.
Result: 18.4

Q: O=C(NN1C(=O)CSC1c1ccccc1F)c1ccncc1 (stereo unspecified) ?
Result: 11.9

Q: Next entry: "O=C(Nc1cccc([N+](=O)[O-])c1)Oc1ccc(-c2ccccc2)cc1"
Result: 57.7

Q: Please give the result for N#CCCN(CCC#N)c1ccc(/C=C2\CC(O)(c3ccccc3)N(c3ccc(Cl)cc3)C2=O)cc1 (stereo unspecified) too.
Result: -6.3

Q: Another molecule: "Cc1ccc(-c2cs/c(=N\N=C3/CSC(=O)N3Cc3ccccc3)n2-c2cccc(C)c2)cc1"
Result: 4.1

For each of the molecules below, state growth inhibition.
1. O=C(OCc1ccccc1)C1CCCN1C(=O)C(CSC(c1ccccc1)(c1ccccc1)c1ccccc1)NC(c1ccccc1)(c1ccccc1)c1ccccc1 (stereo unspecified)
2. Cc1cccc2c1C1C(CC2=O)C(=O)c2ccccc2C1C (stereo unspecified)
3. CC1C(=O)C2C1CS2(=O)=O (stereo unspecified)
4. Cc1nc2ccccc2c(=O)n1NC(=S)Nc1cccc(Cl)c1
5. COC(=O)N/N=C/c1cccnc1
6. O=[N+]([O-])c1ccc(CS(=O)(=O)c2ccccc2)o1

Result:
-7.55
11.6
13
-8.2
9.8
1.15

The origin of these recorded values is PubChem BioAssay (NCI).
